# TARGET UNDER TEST: KCNQ1 (IKs channel, KCNQ1 + KCNE1) (Homo sapiens)
# ASSAY: cell-based
MEASUREMENT TYPE: IC50 (µM)
Give the value in µM but do not write µM after it.

Query CC(C)=CCC[C@](C)(O)[C@H]1CC[C@]2(C)[C@@H]1[C@H](O)C[C@@H]1[C@@]3(C)CC[C@H](O)C(C)(C)[C@@H]3[C@@H](O)C[C@]12C on KCNQ1 (IKs channel, KCNQ1 + KCNE1) (Homo sapiens); IC50 returned: 5.18
